Entry source: patent US20230322908A1

- systemName: T1, TP-51 peptide (aa 352-414 of SEQ ID NO:1) (human)
- T1 construct: Synthetic peptide (Pepscan)
- T1 peptide: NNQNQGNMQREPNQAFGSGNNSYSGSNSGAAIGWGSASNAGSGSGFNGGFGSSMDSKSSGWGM
- procedureText: SPR 8K, mAb captured, TP-51 injected
Listing of entries alongside the reported kon.
Number only, in M⁻¹ s⁻¹; omit the unit.

The cases that follow already have their kon on record.
hACI-7069-633B12-Ab1_H16L14 (IgG4) (antibody, V domains shown) VH: EVQLVQSGAEVKKPGASVKVSCKASGFTFTEYSMHWVRQAPGQRLEWMGGINPGNAGTSYNQKFKGRVTITVDTSASTAYMELSSLRSEDTAVYYCARESWGQGTTVTVSS VL: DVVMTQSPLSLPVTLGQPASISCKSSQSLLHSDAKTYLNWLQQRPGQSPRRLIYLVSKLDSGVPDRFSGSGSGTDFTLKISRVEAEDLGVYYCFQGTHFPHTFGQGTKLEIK : 140000
hACI-7069-633B12-Ab1_H19L19 (IgG4) (antibody, V domains shown) VH: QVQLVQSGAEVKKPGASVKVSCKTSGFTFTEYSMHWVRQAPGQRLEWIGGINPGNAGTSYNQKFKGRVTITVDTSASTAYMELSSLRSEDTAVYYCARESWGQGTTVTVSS VL: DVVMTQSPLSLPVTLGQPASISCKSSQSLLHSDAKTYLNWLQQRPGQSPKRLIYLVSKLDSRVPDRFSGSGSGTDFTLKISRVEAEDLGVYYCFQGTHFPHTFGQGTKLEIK : 110000

Then there is this binder:
Give the value of kon reported for the following: hACI-7069-633B12-Ab1_H20L18 (IgG4) (antibody, V domains shown) VH: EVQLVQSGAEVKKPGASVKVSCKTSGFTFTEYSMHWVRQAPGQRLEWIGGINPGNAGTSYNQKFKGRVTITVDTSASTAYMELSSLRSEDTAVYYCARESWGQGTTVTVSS VL: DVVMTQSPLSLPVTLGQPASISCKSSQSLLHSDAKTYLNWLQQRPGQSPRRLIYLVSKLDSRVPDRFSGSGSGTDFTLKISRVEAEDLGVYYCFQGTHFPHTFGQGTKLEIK
97000
